Reference for the values: patent US20240400564A1

# ASSAY_SYSTEM: hERG (Homo sapiens, UniProt Q12809)
# Sequence (Q12809 whole entry): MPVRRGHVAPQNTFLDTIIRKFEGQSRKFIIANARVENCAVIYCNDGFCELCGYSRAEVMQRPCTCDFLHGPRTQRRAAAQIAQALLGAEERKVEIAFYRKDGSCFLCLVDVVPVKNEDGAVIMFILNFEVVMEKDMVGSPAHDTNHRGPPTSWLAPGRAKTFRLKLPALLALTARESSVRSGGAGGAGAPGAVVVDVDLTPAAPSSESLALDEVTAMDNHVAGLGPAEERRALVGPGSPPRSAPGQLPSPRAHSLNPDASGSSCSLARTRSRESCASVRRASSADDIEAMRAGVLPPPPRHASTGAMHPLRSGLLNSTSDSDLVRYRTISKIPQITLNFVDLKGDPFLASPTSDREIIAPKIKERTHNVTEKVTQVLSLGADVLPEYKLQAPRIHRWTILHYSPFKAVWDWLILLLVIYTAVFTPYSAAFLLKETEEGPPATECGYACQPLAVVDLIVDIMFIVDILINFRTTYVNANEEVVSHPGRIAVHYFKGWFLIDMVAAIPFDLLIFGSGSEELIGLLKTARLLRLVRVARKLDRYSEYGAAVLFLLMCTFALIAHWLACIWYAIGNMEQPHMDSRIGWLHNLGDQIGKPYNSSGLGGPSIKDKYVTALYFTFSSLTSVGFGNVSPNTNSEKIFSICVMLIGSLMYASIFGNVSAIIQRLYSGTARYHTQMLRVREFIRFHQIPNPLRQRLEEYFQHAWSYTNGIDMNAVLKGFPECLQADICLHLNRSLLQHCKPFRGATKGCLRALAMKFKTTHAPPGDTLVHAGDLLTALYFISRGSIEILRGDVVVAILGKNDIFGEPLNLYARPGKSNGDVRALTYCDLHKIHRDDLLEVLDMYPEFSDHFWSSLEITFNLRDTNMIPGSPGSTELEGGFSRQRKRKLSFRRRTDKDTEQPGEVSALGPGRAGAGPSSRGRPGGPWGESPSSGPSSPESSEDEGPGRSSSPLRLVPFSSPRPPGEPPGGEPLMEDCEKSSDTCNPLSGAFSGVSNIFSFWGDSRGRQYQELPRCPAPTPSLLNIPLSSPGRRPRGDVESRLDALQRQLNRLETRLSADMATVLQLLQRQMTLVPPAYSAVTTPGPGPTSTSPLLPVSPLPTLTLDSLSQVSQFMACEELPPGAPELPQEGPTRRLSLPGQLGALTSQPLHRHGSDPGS
# PROTOCOL_DESCRIPTION: Patch clamp assay (hERG tail currents, whole-cell)
# CONDITION_CONTEXT: 10 μM compound

| STRUCTURE_STRING | hERG % Remaining |
| --- | --- |
| CC(C)N(C(=O)c1cc(F)ccc1Oc1cncnc1N1CC2(CCN(C[C@@H]3CC[C@@H](NS(=O)(=O)C4CC4)CO3)CC2)C1)[C@H]1CCOC1 | +++ (≥66%) |
| CC(C)N(CC(F)F)C(=O)c1cc(F)ccc1Oc1cncnc1N1CC2(CCN(C[C@@H]3CC[C@@H](NS(=O)(=O)c4cnn(C)c4)CO3)CC2)C1 | +++ (≥66%) |
| C[C@@H]1COC[C@@H](C)N1C(=O)c1cc(F)ccc1Oc1cncnc1N1CC2(CCN(C[C@@H]3CC[C@@H](NS(=O)(=O)c4ccccc4)CO3)CC2)C1 | +++ (≥66%) |

====

# ASSAY_SYSTEM: UniProt Q12809
# PROTOCOL_DESCRIPTION: Patch clamp assay (hERG tail currents, whole-cell)
# CONDITION_CONTEXT: 10 μM compound

| STRUCTURE_STRING | ASSAY_SYSTEM | hERG % Remaining |
| --- | --- | --- |
| CC(C)N(C(=O)c1cc(F)ccc1Oc1cncnc1N1CC2(CCN(C[C@@H]3CC[C@@H](NS(C)(=O)=O)CO3)CC2)C1)C(C)C | UniProt Q12809 | +++ (≥66%) |
| CC(C)N(CC(F)F)C(=O)c1cc(F)ccc1Oc1cncnc1N1CC2(CCN(C[C@@H]3CC[C@@H](NS(=O)(=O)N4CCC4)CO3)CC2)C1 | UniProt Q12809 | +++ (≥66%) |

====

# ASSAY_SYSTEM: hERG (Homo sapiens)
# PROTOCOL_DESCRIPTION: Patch clamp assay (hERG tail currents, whole-cell)
# CONDITION_CONTEXT: 30 μM compound
REPORTED_METRIC: hERG % Remaining

| STRUCTURE_STRING | REPORTED_METRIC | VALUE_MEASURED |
| --- | --- | --- |
| CCN(C(=O)c1cc(F)ccc1Oc1cncnc1N1CC2(CCN(C[C@@H]3CC[C@@H](NS(=O)(=O)CC)CO3)CC2)C1)C(C)C | hERG % Remaining | +++ (≥66%) |
| CO[C@@H]1CCN(S(=O)(=O)N[C@@H]2CC[C@@H](CN3CCC4(CC3)CN(c3ncncc3Oc3ccc(F)cc3C(=O)N(C(C)C)C(C)C)C4)OC2)C1 | hERG % Remaining | +++ (≥66%) |
| C[C@@H]1COC[C@@H](C)N1C(=O)c1cc(F)ccc1Oc1cncnc1N1CC2(CCN(C[C@@H]3CC[C@@H](NS(=O)(=O)N4CCC[C@@H]4C)CO3)CC2)C1 | hERG % Remaining | +++ (≥66%) |
| CCS(=O)(=O)N[C@@H]1CC[C@@H](CN2CCC3(CC2)CN(c2ncncc2Oc2ccc(F)cc2C(=O)N(C(C)C)C2CC(F)(F)C2)C3)OC1 | hERG % Remaining | ++ (233% and ≤66%) |
| Cc1nc(S(=O)(=O)N[C@@H]2CC[C@@H](CN3CCC4(CC3)CN(c3ncncc3Oc3ccc(F)cc3C(=O)N3[C@H](C)COC[C@H]3C)C4)OC2)cs1 | hERG % Remaining | +++ (≥66%) |
| CCN(C(=O)c1cc(F)ccc1Oc1cncnc1N1CC2(CCN(C[C@@H]3CC[C@@H](NS(=O)(=O)N(C)C)CO3)CC2)C1)C(C)C | hERG % Remaining | +++ (≥66%) |
| CC(C)N(C(=O)c1cc(F)ccc1Oc1cncnc1N1CC2(CCN(C[C@@H]3CC[C@@H](NS(=O)(=O)N(C)C)CO3)CC2)C1)C1CC1 | hERG % Remaining | ++ (233% and ≤66%) |
| Cc1nc(S(=O)(=O)N[C@@H]2CC[C@@H](CN3CCC4(CC3)CN(c3ncncc3Oc3ccc(F)cc3C(=O)N(C(C)C)C(C)C)C4)OC2)co1 | hERG % Remaining | ++ (233% and ≤66%) |
| CC(C)N(C(=O)c1cc(F)ccc1Oc1cncnc1N1CC2(CCN(C[C@@H]3CC[C@@H](NS(N)(=O)=O)CO3)CC2)C1)C(C)C | hERG % Remaining | +++ (≥66%) |
| CC(C)N(CC(F)F)C(=O)c1cc(F)ccc1Oc1cncnc1N1CC2(CCN(C[C@@H]3CC[C@@H](NS(=O)(=O)NCC4CC4)CO3)CC2)C1 | hERG % Remaining | +++ (≥66%) |
| CC(C)N(CC(F)F)C(=O)c1cc(F)ccc1Oc1cncnc1N1CC2(CCN(C[C@@H]3CC[C@@H](NS(=O)(=O)N4CCC4)CO3)CC2)C1 | hERG % Remaining | ++ (233% and ≤66%) |

====

# ASSAY_SYSTEM: hERG (Homo sapiens)
# PROTOCOL_DESCRIPTION: Patch clamp assay (hERG tail currents, whole-cell)
# CONDITION_CONTEXT: 10 μM compound
REPORTED_METRIC: hERG % Remaining

| COMPOUND | ASSAY_SYSTEM | REPORTED_METRIC | VALUE_MEASURED |
| --- | --- | --- | --- |
| CCS(=O)(=O)N[C@@H]1CC[C@@H](CN2CCC3(CC2)CN(c2ncncc2Oc2ccc(F)cc2C(=O)N(C(C)C)[C@@H]2CC[C@@H]2O)C3)OC1 [Example 258] | hERG (Homo sapiens) | hERG % Remaining | +++ (≥66%) |
| CCN(C(=O)c1cc(F)ccc1Oc1cncnc1N1CC2(CCN(C[C@@H]3CC[C@@H](NS(=O)(=O)c4ccccn4)CO3)CC2)C1)C(C)C [Example 58] | hERG (Homo sapiens) | hERG % Remaining | +++ (≥66%) |

====

# ASSAY_SYSTEM: Menin-MLL (Homo sapiens, UniProt O00255)
# Sequence (O00255 whole entry): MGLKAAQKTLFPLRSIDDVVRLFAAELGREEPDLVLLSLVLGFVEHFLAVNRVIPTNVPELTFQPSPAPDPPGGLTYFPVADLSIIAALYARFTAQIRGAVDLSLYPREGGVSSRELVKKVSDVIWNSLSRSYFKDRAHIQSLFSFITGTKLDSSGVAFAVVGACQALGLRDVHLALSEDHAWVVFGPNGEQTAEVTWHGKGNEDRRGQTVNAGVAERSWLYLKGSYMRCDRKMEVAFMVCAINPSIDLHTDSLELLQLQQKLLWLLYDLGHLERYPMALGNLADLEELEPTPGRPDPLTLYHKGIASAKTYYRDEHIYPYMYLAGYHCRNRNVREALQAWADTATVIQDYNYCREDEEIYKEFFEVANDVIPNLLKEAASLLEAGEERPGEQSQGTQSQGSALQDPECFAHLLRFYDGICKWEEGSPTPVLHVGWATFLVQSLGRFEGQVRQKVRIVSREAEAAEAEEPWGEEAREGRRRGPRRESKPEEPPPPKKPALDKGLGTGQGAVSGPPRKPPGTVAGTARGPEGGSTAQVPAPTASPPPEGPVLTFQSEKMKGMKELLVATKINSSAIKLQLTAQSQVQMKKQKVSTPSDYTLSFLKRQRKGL
# PROTOCOL_DESCRIPTION: Determination of binding constants to Menin-MLL (HTRF, EC50 and Ki)
# CONDITION_CONTEXT: 0.25 nM H-FL-Menin, 3.2 nM FITC-MLL-4-43, 24 hr incubation
Catalogue of EC50 values
REPORTED_METRIC: EC50 (nM)

| STRUCTURE_STRING | ASSAY_SYSTEM | CMP | VALUE_MEASURED |
| --- | --- | --- | --- |
| CC(C)N(C(=O)c1cc(F)ccc1Oc1cncnc1N1CC2(CCN(C[C@@H]3CC[C@@H](NS(=O)(=O)C(C)C)CO3)CC2)C1)[C@@H]1CCOC1 | Menin-MLL (Homo sapiens, UniProt O00255) | = | 111 |
| CCN(C(=O)c1cc(F)ccc1Oc1cncnc1N1CC2(CCN(C[C@H]3CC[C@H](NS(=O)(=O)CC)CO3)CC2)C1)C(C)C | Menin-MLL (Homo sapiens, UniProt O00255) | ≤ | 50 |

====

# ASSAY_SYSTEM: hERG (Homo sapiens)
# PROTOCOL_DESCRIPTION: Patch clamp assay (hERG tail currents, whole-cell)
# CONDITION_CONTEXT: 100 μM compound
REPORTED_METRIC: hERG % Remaining

| COMPOUND | ASSAY_SYSTEM | REPORTED_METRIC | VALUE_MEASURED |
| --- | --- | --- | --- |
| CCS(=O)(=O)N[C@@H]1CC[C@@H](CN2CCC3(CC2)CN(c2ncncc2Oc2ccc(F)cc2C(=O)N(C(C)C)C(C)C)C3)OC1 [Example 13] | hERG (Homo sapiens) | hERG % Remaining | ++ (233% and ≤66%) |
| CCS(=O)(=O)N[C@@H]1CC[C@@H](CN2CCC3(CC2)CN(c2ncncc2Oc2ccc(F)cc2C(=O)N(CC(F)F)C(C)C)C3)OC1 [Example 34] | hERG (Homo sapiens) | hERG % Remaining | + (<33%) |
| CC(C)N(C(=O)c1cc(F)ccc1Oc1cncnc1N1CC2(CCN(C[C@@H]3CC[C@@H](NS(C)(=O)=O)CO3)CC2)C1)C(C)C [Example 12] | hERG (Homo sapiens) | hERG % Remaining | ++ (233% and ≤66%) |
| CC(C)N(C(=O)c1cc(F)ccc1Oc1cncnc1N1CC2(CCN(C[C@@H]3CC[C@@H](NS(=O)(=O)C4CC4)CO3)CC2)C1)C(C)C [Example 15] | hERG (Homo sapiens) | hERG % Remaining | + (<33%) |

====

# ASSAY_SYSTEM: UniProtKB Q12809
# PROTOCOL_DESCRIPTION: Patch clamp assay (hERG tail currents, whole-cell)
# CONDITION_CONTEXT: 30 μM compound

| COMPOUND | ASSAY_SYSTEM | hERG % Remaining |
| --- | --- | --- |
| CCN(CC)S(=O)(=O)N[C@@H]1CC[C@@H](CN2CCC3(CC2)CN(c2ncncc2Oc2ccc(F)cc2C(=O)N(C(C)C)C2CC(F)(F)C2)C3)OC1 [Example 114] | UniProtKB Q12809 | + (<33%) |
| C[C@@H]1COC[C@@H](C)N1C(=O)c1cc(F)ccc1Oc1cncnc1N1CC2(CCN(C[C@@H]3CC[C@@H](NS(=O)(=O)c4ccccc4)CO3)CC2)C1 [Example 120] | UniProtKB Q12809 | ++ (233% and ≤66%) |
| CC(C)N(CC(F)F)C(=O)c1cc(F)ccc1Oc1cncnc1N1CC2(CCN(C[C@@H]3CC[C@@H](NS(=O)(=O)N(C)C)CO3)CC2)C1 [Example 95] | UniProtKB Q12809 | ++ (233% and ≤66%) |
| CC(C)N(C(=O)c1cc(F)ccc1Oc1cncnc1N1CC2(CCN(C[C@@H]3CC[C@@H](NS(=O)(=O)N4CCC[C@@H]4C)CO3)CC2)C1)C(C)C [Example 202] | UniProtKB Q12809 | + (<33%) |
| CCN(C(=O)c1cc(F)ccc1Oc1cncnc1N1CC2(CCN(C[C@@H]3CC[C@@H](NS(=O)(=O)C4CCC4)CO3)CC2)C1)C(C)C [Example 6] | UniProtKB Q12809 | ++ (233% and ≤66%) |
